This section presents compounds with their documented isoTOP-ABPP reactivity ratio at lysine Q8N163_K97 values.
Target: KIAA1967 DBIRD complex subunit KIAA1967 (Homo sapiens)
Construct: isoTOP-ABPP experiments performed in cell lysates (in vitro); endogenous in cells; host or cells: soluble proteome of human cancer cell lines (MDA-MB-231; Ramos and Jurkat also prepared)
Sequence (Q8N163 whole entry, one chain of several): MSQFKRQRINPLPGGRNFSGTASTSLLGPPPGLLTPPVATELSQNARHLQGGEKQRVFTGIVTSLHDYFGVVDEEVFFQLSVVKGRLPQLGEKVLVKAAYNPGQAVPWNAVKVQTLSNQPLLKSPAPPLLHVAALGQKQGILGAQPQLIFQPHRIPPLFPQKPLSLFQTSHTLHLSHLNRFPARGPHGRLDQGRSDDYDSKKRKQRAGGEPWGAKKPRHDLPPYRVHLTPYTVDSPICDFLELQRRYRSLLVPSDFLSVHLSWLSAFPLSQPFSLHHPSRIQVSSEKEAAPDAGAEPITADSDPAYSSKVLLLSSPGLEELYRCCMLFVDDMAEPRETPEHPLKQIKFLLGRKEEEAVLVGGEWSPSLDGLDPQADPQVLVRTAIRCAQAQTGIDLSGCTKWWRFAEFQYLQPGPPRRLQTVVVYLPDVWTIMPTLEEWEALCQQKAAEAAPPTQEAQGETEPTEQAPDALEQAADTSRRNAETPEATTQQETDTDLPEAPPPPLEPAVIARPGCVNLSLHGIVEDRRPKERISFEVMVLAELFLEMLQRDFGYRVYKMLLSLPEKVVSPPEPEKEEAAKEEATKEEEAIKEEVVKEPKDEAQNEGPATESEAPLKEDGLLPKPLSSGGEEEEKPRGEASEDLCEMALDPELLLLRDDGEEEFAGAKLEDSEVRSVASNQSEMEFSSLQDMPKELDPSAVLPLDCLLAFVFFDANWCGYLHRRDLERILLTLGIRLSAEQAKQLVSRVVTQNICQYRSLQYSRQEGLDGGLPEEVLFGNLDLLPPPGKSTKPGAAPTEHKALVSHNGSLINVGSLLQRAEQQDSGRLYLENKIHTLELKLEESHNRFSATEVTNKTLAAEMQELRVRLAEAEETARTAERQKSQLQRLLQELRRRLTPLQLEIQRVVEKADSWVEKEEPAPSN
Test: competitive isoTOP-ABPP
Assay type: binding
Conditions: 50 uM, 231 sol, in vitro

>>> data_value("COc1cc(CCC(=O)Oc2ccc([N+](=O)[O-])cc2[N+](=O)[O-])cc(OC)c1OC")
0.7

Request: Which isoTOP-ABPP reactivity ratio at lysine Q8N163_K97 is listed for `O=C(CN1C(=O)c2ccccc2C1=O)Oc1c(F)c(F)c(F)c(F)c1F` ?
Result: 0.9

Request: Which isoTOP-ABPP reactivity ratio at lysine Q8N163_K97 is listed for `CCn1cc(C(=O)Oc2c(F)c(F)c(F)c(F)c2F)c(=O)c2ccc(C)nc21` ?
Result: 0.9
